Listing of recorded pKi by entry.
biological target: human σ1 receptor and human μ-opioid receptor; test: Human σ1 receptor radioligand assay and human μ-opioid receptor radioligand assay (μ and σ1 dual binding); conditions: one class for both Ki: σ1 ([3H](+)-pentazocine, transfected HEK-293 membranes) and μ-opioid ([3H]-DAMGO, transfected CHO-K1 membranes)
pKi: −log10 of the molar value.

Guide cases for pKi, answers given:
// returns pKi for CC(C)S(=O)(=O)Nc1cccc(N2CCN(Cc3cnn(-c4ccccn4)c3)CC2)c1 with human σ1 receptor and human μ-opioid receptor; value = > 7.00

Sample O=S(=O)(Nc1cccc(N2CCN(Cc3cn(-c4ccccc4)nn3)CC2)n1)C1CC1 , system: human σ1 receptor and human μ-opioid receptor. Its pKi is > 6.30

Param item: CS(=O)(=O)Nc1cccc(N2CCN(Cc3cn(-c4ccc(C(F)(F)F)nc4)nn3)CC2)c1 ; param system: human σ1 receptor and human μ-opioid receptor; output pKi: ≤ 6.30

CC(C)S(=O)(=O)Nc1cccc(N2CCN(Cc3cn(-c4ccccc4)nn3)CC2)c1 tested on human σ1 receptor and human μ-opioid receptor gave pKi: > 7.00

Entry Nc1cccc(N2CCN(Cc3cn(-c4ccccc4)nn3)CC2)n1 under human σ1 receptor and human μ-opioid receptor had pKi of ≤ 6.30

Field pKi (system: human σ1 receptor and human μ-opioid receptor) for entry CS(=O)(=O)Nc1cccc(NC2CCN(Cc3cn(-c4ccccc4)nn3)C2)c1 (centres unmarked) = > 6.30

Value sought: pKi, system human σ1 receptor and human μ-opioid receptor, item CC(C)S(=O)(=O)Nc1cccc(N2CC3CN(Cc4cn(-c5ccccc5)nn4)CC3C2)n1 (centres unmarked) . Result: > 6.30

Now, please, on to the next compound.
Note to self: pKi of CC(C)S(=O)(=O)Nc1cccc(N2CCN(Cc3cn(-c4ccc(F)cc4)nn3)CC2)c1 with human σ1 receptor and human μ-opioid receptor was > 6.30
